System: Plasmodium falciparum
Experiment: Inhibitory activity against Plasmodium falciparum
Assay type: functional, organism-based
recorded-metric: IC50 (µM)
All answers are understood in µM, so give the number only.

Sure, the documented IC50 for CETRIMIDE is 0.9

Every entry's value here was drawn from ChEMBL document CHEMBL1130201.
